- System: Puccinia recondita
- measurement_description: Use Example 4: preventative control of brown rust on wheat (PUCCRT P7)
- Assay type: in vivo
- test_settings: inoculated seven days after spraying, 4 ppm, % diseased leaf area
parameter_measured: % PUCCRT Disease level P7 at 4 ppm

Before answering, review these 4 worked examples.
CNC(=O)/C(=N/OC)c1cccc(Cl)c1CO/N=C(\COC)c1ccccc1C [compound 122]; 45%
CCOC/C(=N\OCc1c(Cl)cccc1/C(=N\OC)C(=O)NC)c1cccc(Cl)c1 [compound 40]; 30%
CO/C=C(/C(=O)OC)c1cccc(Cl)c1CO/N=C(\COC)c1cccc(F)c1 [compound 14]; 13%
CCOCC(=NOCc1c(Cl)cccc1C(=COC)C(=O)OC)c1ccc(F)cc1 [compound 23]; 37%

Would you mind telling me what % PUCCRT Disease level P7 at 4 ppm value was observed for CO/C=C(/C(=O)OC)c1cccc(Cl)c1CO/N=C(\COC)c1cccc(Cl)c1 [compound 39] ?
3%
